Just for reference, paper PMC3483018 is where these values come from.

Assay: In vivo rat PK
Details: female, Sprague-Dawley, plasma, iv, 5 mg/kg
parameter.measured: Vd (L)
// units = L; emit number, no label

Inquiry: Output measured Vd for this item: Cc1nn(C)cc1-c1nc2c(N3CCN(Cc4ccc(Cl)cc4)CC3)c(Cl)cnc2[nH]1 [Compound 27e]
Reply text: 0.369

###

So I've got a bunch of molecules here, and I need their inhibition at 10 µM values.
Biological target: hERG (Homo sapiens, UniProt Q12809)
Sequence (Q12809 whole entry): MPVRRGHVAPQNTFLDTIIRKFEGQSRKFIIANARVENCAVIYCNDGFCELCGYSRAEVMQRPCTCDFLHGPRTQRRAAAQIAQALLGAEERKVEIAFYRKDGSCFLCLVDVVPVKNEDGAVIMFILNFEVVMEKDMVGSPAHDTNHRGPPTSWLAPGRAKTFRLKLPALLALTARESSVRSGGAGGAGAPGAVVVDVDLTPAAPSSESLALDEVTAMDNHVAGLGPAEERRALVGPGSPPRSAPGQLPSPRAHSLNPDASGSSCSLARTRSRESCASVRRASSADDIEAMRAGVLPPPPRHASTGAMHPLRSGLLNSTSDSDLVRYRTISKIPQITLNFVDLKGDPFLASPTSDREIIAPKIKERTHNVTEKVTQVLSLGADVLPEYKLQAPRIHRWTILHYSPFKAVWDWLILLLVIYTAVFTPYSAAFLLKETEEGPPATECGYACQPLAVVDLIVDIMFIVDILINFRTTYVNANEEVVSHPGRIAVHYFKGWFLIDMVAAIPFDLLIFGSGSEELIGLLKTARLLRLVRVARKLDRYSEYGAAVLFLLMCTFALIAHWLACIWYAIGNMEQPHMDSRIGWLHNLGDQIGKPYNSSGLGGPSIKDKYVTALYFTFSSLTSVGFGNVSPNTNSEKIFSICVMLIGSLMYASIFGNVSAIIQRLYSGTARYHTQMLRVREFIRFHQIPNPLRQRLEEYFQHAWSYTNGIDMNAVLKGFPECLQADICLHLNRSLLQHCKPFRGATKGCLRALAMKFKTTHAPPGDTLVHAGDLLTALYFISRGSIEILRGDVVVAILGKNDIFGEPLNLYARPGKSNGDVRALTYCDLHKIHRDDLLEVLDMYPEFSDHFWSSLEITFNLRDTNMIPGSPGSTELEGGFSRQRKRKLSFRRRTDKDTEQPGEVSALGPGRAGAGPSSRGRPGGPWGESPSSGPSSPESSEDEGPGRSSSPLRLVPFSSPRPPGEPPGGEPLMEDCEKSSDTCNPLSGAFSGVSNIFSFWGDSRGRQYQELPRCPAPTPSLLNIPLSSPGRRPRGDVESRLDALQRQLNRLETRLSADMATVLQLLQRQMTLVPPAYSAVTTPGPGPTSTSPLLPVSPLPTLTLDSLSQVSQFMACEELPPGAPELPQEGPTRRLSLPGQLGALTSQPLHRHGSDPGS
Assay: in vitro
Response body: numeric value in %, unit text excluded.

Inquiry: // output inhibition at 10 µM; input Cc1cc(CN2CCN(c3c(Br)cnc4nc(-c5cncn5C)[nH]c34)CC2)no1 [Compound 21a] ; system hERG (Homo sapiens, UniProt Q12809)
Reply text: 94

Inquiry: Please indicate recorded inhibition at 10 µM of Cc1cc(CN2CCN(c3c(Cl)cnc4nc(-c5cnn(C)c5)[nH]c34)CC2)no1 [Compound 21i] measured with hERG (Homo sapiens, UniProt Q12809).
Reply text: 67

###

Assay: pKa measurement
Type: physicochemical
Conditions: pKa of the piperazine nitrogen bearing the 5-methylisoxazol-3-yl substituent
parameter.measured: pKa
Give a plain numeric answer without units written out.

Inquiry: Given COc1ccc(-c2nc3c(N4CCN(Cc5cc(C)on5)CC4)c(Br)cnc3[nH]2)cc1 , respond with its pKa.
Reply text: 5.39
